- Test system: CAS-1 (Glioblastoma)
- ASSAY: Bliss excess, mean over the matrix (fraction); higher = more synergy;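 note: after 72 h of two-drug dosing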
EXPERIMENTAL_ENDPOINT: Bliss excess
Numbers only.

Answered examples (3):
- COMPOUND: "NC1(C(=O)N[C@@H](CCO)c2ccc(Cl)cc2)CCN(c2ncnc3[nH]ccc23)CC1 [Capivasertib] + CC(C)n1c(=O)n(C)c2cnc3cc(F)c(-c4ccc(OCCCN5CCCCC5)nc4)cc3c21 [AZD1390] (first compound max 10 µM, 7x7, partner max 0.3 µM)"
  RESULT_VALUE: -0.0671
- COMPOUND: "Cc1c2c(nn1C)CSCc1cc(n(C)n1)CSc1cc(c3ccccc3c1)OCCCc1c(C(=O)O)n(C)c3c-2c(Cl)ccc13 [AZD5991] + CCN(CCO)CCCOc1ccc2c(Nc3cc(CC(=O)Nc4cccc(F)c4)[nH]n3)ncnc2c1 [AZD2811] (first compound max 1 µM, 7x7, partner max 1 µM)"
  RESULT_VALUE: 0.061
- COMPOUND: "CN(CCO)CC[C@H](CSc1ccccc1)Nc1ccc(S(=O)(=O)NC(=O)c2ccc(N3CCC([C@@H](O)c4ccccc4-c4ccc(Cl)cc4)CC3)cc2)cc1S(=O)(=O)C(F)(F)F [AZD4320] + Cn1cnc2c(F)c(Nc3ccc(Br)cc3Cl)c(C(=O)NOCCO)cc21 [Selumetinib] (first compound max 1 µM, 7x7, partner max 3 µM)"
  RESULT_VALUE: -0.054

# map each compound to its Bliss excess
1. CN(CCO)CC[C@H](CSc1ccccc1)Nc1ccc(S(=O)(=O)NC(=O)c2ccc(N3CCC([C@@H](O)c4ccccc4-c4ccc(Cl)cc4)CC3)cc2)cc1S(=O)(=O)C(F)(F)F [AZD4320] + C1CN(CCC1(C(=O)N[C@@H](CCO)C2=CC=C(C=C2)Cl)N)C3=NC=NC4=C3C=CN4 [Capivasertib] (first compound max 1 µM, 7x7, partner max 3 µM)
2. Cc1cc2ncnn2cc1Nc1ncc2c(n1)n(C1CCOCC1)c(=O)n2C [AZD7648] + C[C@@H]1COCCN1C2=NC(=NC(=C2)C3(CC3)[S@](=N)(=O)C)C4=C5C=CNC5=NC=C4 [AZD6738] (first compound max 10 µM, 7x7, partner max 10 µM)
3. CN(C)CCCOc1ccc(-c2ccc3ncc4c(c3c2)n(C2CCOCC2)c(=O)n4C)cn1 [AZD0156] + O=C(c1cc(Cc2n[nH]c(=O)c3ccccc23)ccc1F)N1CCN(C(=O)C2CC2)CC1 [Olaparib] (first compound max 3 µM, partner max 3 µM)
4. COc1cc2ncnc(Nc3ccc(F)c(Cl)c3)c2cc1OCCCN1CCOCC1 [Gefitinib] + CC(C)n1c(=O)n(C)c2cnc3cc(F)c(-c4ccc(OCCCN5CCCCC5)nc4)cc3c21 [AZD1390] (first compound max 10 µM, 7x7, partner max 0.3 µM)

1. -0.078
2. 0.0024
3. 0.0481
4. -0.0603

====

- System: A549 (Lung Adenocarcinoma)
- ASSAY: Bliss excess, mean over the matrix (fraction); higher = more synergy
EXPERIMENTAL_ENDPOINT: Bliss excess
Give bare numbers.

- COMPOUND: "Cc1cc2ncnn2cc1Nc1ncc2c(n1)n(C1CCOCC1)c(=O)n2C [AZD7648] + O=C(c1cc(Cc2n[nH]c(=O)c3ccccc23)ccc1F)N1CCN(C(=O)C2CC2)CC1 [Olaparib] (first compound max 10 µM, 7x7, partner max 10 µM)"
  Bliss excess: 0.0613

Summary for this compound, CCN(CCO)CCCOc1ccc2c(Nc3cc(CC(=O)Nc4cccc(F)c4)[nH]n3)ncnc2c1 [AZD2811] + C=CCn1c(=O)c2cnc(Nc3ccc(N4CCN(C)CC4)cc3)nc2n1-c1cccc(C(C)(C)O)n1 [AZD1775] (first compound max 1 µM, partner max 1 µM) : Bliss excess is 0.015
